CC50 at 24 h values for the compounds below.
# test.description: Cytotoxicity against BALB/c mouse splenocytes assessed as cell viability after 24 hrs by [3H]thymidine incorporation assay
# Format: cell-based, Splenocyte
assay.readout: CC50 at 24 h (µM)

                                   compound  quantitative_result
0  C/C(=N\NC(N)=S)C(C)Oc1ccccc1-c1ccccc1 (configuration not stated)                   50
1  CC(=O)Nc1ccc(OC(C)/C(C)=N/NC(N)=S)cc1 (configuration not stated)                  350

###

# System: Trypanosoma cruzi
# test.description: Antitrypanosomal activity against Trypanosoma cruzi Dm28c epimastigotes assessed as inhibition of parasite proliferation after 5 days by hemocytometer analysis
# Assay type: functional, organism-based
# experimental.parameters: 120 h
pIC50: −log10 of the molar value.
Hi, to clarify the labels: 1.0 covers pIC50 from 5 upward, 0.0 covers anything below 5.

                                    compound  answer_label
 0  C/C(=N\NC(N)=S)C(C)Oc1cccc2ccccc12 (configuration not stated)           1.0
 1  C/C(=N\NC(N)=S)C(C)Oc1ccc(Cl)c(Cl)c1 (configuration not stated)           1.0
 2  O=C(Cn1ccnc1[N+](=O)[O-])NCc1ccccc1 [BENZNIDAZOLE]           0.0
 3  C/C(=N\NC(N)=S)C(C)Oc1ccc(F)cc1 (configuration not stated)           0.0
 4  C/C(=N\NC(N)=S)C(C)Oc1cccc(Br)c1 (configuration not stated)           1.0
 5  C/C(=N\NC(N)=S)C(C)Oc1ccccc1-c1ccccc1 (configuration not stated)           1.0
 6  C/C(=N\NC(N)=S)C(C)Oc1ccc(C(C)C)cc1 (configuration not stated)           1.0
 7  C/C(=N\NC(N)=S)C(C)Oc1ccc(I)cc1 (configuration not stated)           1.0
 8  C/C(=N\NC(N)=S)C(C)Oc1cccc(-c2ccccc2)c1 (configuration not stated)           1.0
 9  C/C(=N\NC(N)=S)C(C)Oc1cccc(Cl)c1 (configuration not stated)           0.0
10  C/C(=N\NC(N)=S)C(C)Oc1ccc(-c2ccccc2)cc1 (configuration not stated)           1.0

###

# test.description: Cytotoxicity against BALB/c mouse splenocytes assessed as cell viability after 24 hrs by [3H]thymidine incorporation assay
# Format: cell-based, Splenocyte
# experimental.parameters: read-out: MNCC
Under this convention, 1 denotes MNTC at 24 h strictly below 30 µM and 0 denotes MNTC at 24 h at or above 30 µM.

                                    compound  answer_label
 0  C/C(=N\NC(N)=S)C(C)Oc1ccccc1-c1ccccc1 (configuration not stated)             0
 1  C/C(=N\NC(N)=S)C(C)Oc1ccc(Cl)cc1 (configuration not stated)             0
 2  C/C(=N\NC(N)=S)C(C)Oc1cccc(Cl)c1Cl (configuration not stated)             0
 3  C/C(=N\NC(N)=S)C(C)Oc1ccc(Cl)c(Cl)c1 (configuration not stated)             1
 4  C/C(=N\NC(N)=S)C(C)Oc1ccc(-c2ccccc2)cc1 (configuration not stated)             1
 5  C/C(=N\NC(N)=S)C(C)Oc1ccc(Br)cc1 (configuration not stated)             0
 6  COc1ccc(OC(C)/C(C)=N/NC(N)=S)cc1 (configuration not stated)             0
 7  C/C(=N\NC(N)=S)C(C)Oc1cccc(Br)c1 (configuration not stated)             0
 8  COc1cccc(OC(C)/C(C)=N/NC(N)=S)c1 (configuration not stated)             0
 9  C/C(=N\NC(N)=S)C(C)Oc1ccccc1Cl (configuration not stated)             0
10  C/C(=N\NC(N)=S)C(C)Oc1ccc(C(C)C)cc1 (configuration not stated)             1

###

Reported MNTC at 24 h values for the following compounds.
# test.description: Cytotoxicity against BALB/c mouse splenocytes assessed as cell viability after 24 hrs by [3H]thymidine incorporation assay
# Format: cell-based, Splenocyte
# experimental.parameters: read-out: MNCC
assay.readout: MNTC at 24 h (µM)

>>> print(df.to_string())
                                    compound  assay_readout  qualifier  quantitative_result
 0  CCc1ccc(OC(C)/C(C)=N/NC(N)=S)cc1 (configuration not stated)   MNTC at 24 h          =                 18.8
 1  C/C(=N\NC(N)=S)C(C)Oc1ccc2ccccc2c1 (configuration not stated)   MNTC at 24 h          =                 34.8
 2  C/C(=N\NC(N)=S)C(C)Oc1ccc(F)c(Cl)c1 (configuration not stated)   MNTC at 24 h          =                 34.5
 3  C/C(=N\NC(N)=S)C(C)Oc1cccc2ccccc12 (configuration not stated)   MNTC at 24 h          =                 34.8
 4  C/C(=N\NC(N)=S)C(C)Oc1cccc(Cl)c1 (configuration not stated)   MNTC at 24 h          =                 36.8
 5  C/C(=N\NC(N)=S)C(C)Oc1ccc(F)cc1 (configuration not stated)   MNTC at 24 h          >                  392
 6  C/C(=N\NC(N)=S)C(C)Oc1ccc([N+](=O)[O-])cc1 (configuration not stated)   MNTC at 24 h          =                 88.5
 7  C/C(=N\NC(N)=S)C(C)Oc1ccc(I)cc1 (configuration not stated)   MNTC at 24 h          =                 13.7
 8  C/C(=N\NC(N)=S)C(C)Oc1ccc(C(C)(C)C)cc1 (configuration not stated)   MNTC at 24 h          =                   17
 9  C/C(=N\NC(N)=S)C(C)Oc1cccc(-c2ccccc2)c1 (configuration not stated)   MNTC at 24 h          =                 31.9
10  CC(=O)Nc1ccc(OC(C)/C(C)=N/NC(N)=S)cc1 (configuration not stated)   MNTC at 24 h          >                  340
11  C/C(=N\NC(N)=S)C(C)Oc1ccccc1 (configuration not stated)   MNTC at 24 h          =                  211

###

# Tested on: Trypanosoma cruzi
# test.description: Antitrypanosomal activity against Trypanosoma cruzi Dm28c epimastigotes assessed as inhibition of parasite proliferation after 5 days by hemocytometer analysis
# Type: functional, organism-based
# experimental.parameters: 120 h
Each record's class is read off its IC50 using these ranges: bucket A = under 7 µM, bucket B = from 7 µM up to 30 µM, bucket C = 30 µM and over

>>> df
                                    compound  answer_label
 0  CC1CS(=O)(=O)CCN1/N=C/c1ccc([N+](=O)[O-])o1 (configuration not stated) [NIFURTIMOX]      bucket A
 1  C/C(=N\NC(N)=S)C(C)Oc1ccc([N+](=O)[O-])cc1 (configuration not stated)      bucket C
 2  C/C(=N\NC(N)=S)C(C)Oc1ccc(C(C)(C)C)cc1 (configuration not stated)      bucket A
 3  C/C(=N\NC(N)=S)C(C)Oc1cccc(Cl)c1Cl (configuration not stated)      bucket A
 4  CC(=O)Nc1ccc(OC(C)/C(C)=N/NC(N)=S)cc1 (configuration not stated)      bucket C
 5  C/C(=N\NC(N)=S)C(C)Oc1ccc2ccccc2c1 (configuration not stated)      bucket B
 6  C/C(=N\NC(N)=S)C(C)Oc1ccccc1Cl (configuration not stated)      bucket B
 7  C/C(=N\NC(N)=S)C(C)Oc1ccc(Br)cc1 (configuration not stated)      bucket B
 8  COc1ccc(OC(C)/C(C)=N/NC(N)=S)cc1 (configuration not stated)      bucket B
 9  C/C(=N\NC(N)=S)C(C)Oc1ccccc1 (configuration not stated)      bucket B
10  C/C(=N\NC(N)=S)C(C)Oc1ccc(Cl)cc1 (configuration not stated)      bucket B
